Below, each entry is listed alongside its reported Kd.
Molecular target: SH3PXD2A-1 SH3 domain (aa 166-225) (Homo sapiens, UniProt Q5TCZ1)
Construct: 166-225; GST (N); made in house; host or cells: Escherichia coli CodonPlus, Rosetta, BL21(DE3)
Sequence (Q5TCZ1 166-225): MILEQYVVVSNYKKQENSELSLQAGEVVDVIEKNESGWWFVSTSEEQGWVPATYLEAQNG
Test: Fluorescence polarization SH3 domain-PRP binding
Conditions: FP, 0.2 µM fluorescein-labeled peptide, SH3 domain 0-200 µM, Tris/HCl pH 7.5, 25 °C, quadratic fit
Peptide text beside a SMILES is read from it.
property: Kd

compound | tested target | property | measured value
CC[C@H](C)[C@H](NC(=O)[C@H](C)NC(=O)[C@@H]1CCCN1C(=O)[C@@H]1CCCN1C(=O)[C@H](CO)NC(=O)[C@H](CC(=O)O)NC(=O)[C@@H](N)CC(C)C)C(=O)N1CCC[C@H]1C(=O)N1CCC[C@H]1C(=O)N[C@@H](CCCNC(=N)N)C(=O)N[C@@H](CCC(N)=O)C(=O)N1CCC[C@H]1C(=O)N[C@H](C(=O)N[C@@H](CO)C(=O)N[C@@H](CCCCN)C(=O)O)[C@@H](C)O [Peptide P4] (H-LDSPPAIPPRQPTSK-OH) | SH3PXD2A-1 SH3 domain (aa 166-225) (Homo sapiens, UniProt Q5TCZ1) | Kd | > 200 µM
CC(C)C[C@H](NC(=O)[C@@H](NC(=O)[C@@H](N)C(C)C)[C@@H](C)O)C(=O)N1CCC[C@H]1C(=O)N[C@@H](Cc1c[nH]cn1)C(=O)NCC(=O)N1CCC[C@H]1C(=O)N[C@@H](CCCNC(=N)N)C(=O)N[C@@H](CO)C(=O)N[C@@H](C)C(=O)O [Peptide P2] (H-VTLPHGPRSA-OH) | SH3PXD2A-1 SH3 domain (aa 166-225) (Homo sapiens, UniProt Q5TCZ1) | Kd | 44 µM
CC(C)C[C@H](NC(=O)[C@@H]1CCCN1C(=O)[C@@H]1CCCN1C(=O)[C@H](CO)NC(=O)[C@@H]1CCCN1C(=O)[C@H](CC(C)C)NC(=O)[C@H](Cc1c[nH]cn1)NC(=O)[C@@H](N)CCCNC(=N)N)C(=O)N[C@H](C(=O)N[C@@H](CCC(N)=O)C(=O)O)[C@@H](C)O [Peptide P8] (H-RHLPSPPLTQ-OH; N-terminus and C-terminus assumed) | SH3PXD2A-1 SH3 domain (aa 166-225) (Homo sapiens, UniProt Q5TCZ1) | Kd | > 200 µM
CC(C)[C@H](N)C(=O)N1CCC[C@H]1C(=O)N[C@H](C(=O)N1CCC[C@H]1C(=O)N1CCC[C@H]1C(=O)N1CCC[C@H]1C(=O)N[C@H](C(=O)N1CCC[C@H]1C(=O)N1CCC[C@H]1C(=O)N[C@@H](CCCNC(=N)N)C(=O)N[C@@H](CCCNC(=N)N)C(=O)N[C@@H](CCCNC(=N)N)C(=O)O)C(C)C)C(C)C [RP1, reference compound] | SH3PXD2A-1 SH3 domain (aa 166-225) (Homo sapiens, UniProt Q5TCZ1) | Kd | > 200 µM

* * *

Peptide text beside a SMILES is read from it.
Form: system (NPHP1 SH3 domain (Homo sapiens, UniProt O15259)), quantity (Kd), values below.
property: Kd

compound | measured value
CC(C)C[C@H](NC(=O)[C@@H]1CCCN1C(=O)[C@@H](NC(=O)[C@H](CCCNC(=N)N)NC(=O)[C@@H]1CCCN1C(=O)[C@H](CO)NC(=O)[C@H](CC(N)=O)NC(=O)[C@@H]1CCCN1C(=O)[C@H](C)NC(=O)[C@@H](N)CO)[C@@H](C)O)C(=O)N[C@H](C(=O)N1CCC[C@H]1C(=O)N1CCC[C@H]1C(=O)N1CCC[C@H]1C(=O)N[C@@H](C)C(=O)N[C@@H](CO)C(=O)O)[C@@H](C)O [Peptide P1] (H-SAPNSPRTPLTPPPAS-OH) | > 200 µM
CC(C)[C@H](NC(=O)[C@@H]1CCCN1C(=O)[C@@H]1CCCN1C(=O)[C@H](C)NC(=O)[C@H](CCC(=O)O)NC(=O)[C@H](CS)NC(=O)[C@@H](N)CCCNC(=N)N)C(=O)N1CCC[C@H]1C(=O)N1CCC[C@H]1C(=O)N[C@@H](CCCNC(=N)N)C(=O)N[C@@H](CCCNC(=N)N)C(=O)N[C@@H](CCC(=O)O)C(=O)N[C@@H](CCCNC(=N)N)C(=O)NCC(=O)O [RP2, reference compound] (H-RCEAPPVPPRRERG-OH) | > 200 µM
CC[C@H](C)[C@H](N)C(=O)N[C@@H](C)C(=O)NCC(=O)N1CCC[C@H]1C(=O)N1CCC[C@H]1C(=O)N[C@H](C(=O)N1CCC[C@H]1C(=O)N1CCC[C@H]1C(=O)N[C@@H](CCCNC(=N)N)C(=O)N[C@@H](CCC(N)=O)C(=O)N[C@@H](CO)C(=O)O)C(C)C [Peptide P9] (H-IAGPPVPPRQS-OH) | > 200 µM

Just for reference, paper PMC10814857 is where these values come from.
